Each recorded value in this set is attributed to the supplement of paper PMC8967900.

# Tested on: ALL-SIL;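 also: ALL cell lines in 384-well plates, five doses spanning 10,000-fold, each plate scaled between vehicle and 100 µmol/L benzalkonium chloride controls, sDSS an adapted area-under-curve metric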
# PROTOCOL DETAILS: selective drug sensitivity score (sDSS, relative to normal bone marrow) (sDSS (score)); higher = more potent and effective on the cell line relative to normal bone marrow cells
# COND: 72 h
The label depends only on selective drug sensitivity score: label 1 if it is at least -0.08, label 0 if it is smaller.

Use these answered entries as a reference point.
CC[C@@H]1CN(C(=O)NCC(F)(F)F)C[C@@H]1c1cnc2cnc3[nH]ccc3n12 [Upadacitinib] (top concentration 10000 nM) | label 0
Cc1cc2c(F)c(Oc3ncnn4cc(OC[C@@H](C)O)c(C)c34)ccc2[nH]1 [Brivanib] (top concentration 1000 nM) | label 1
CC(=O)c1cc2c(o1)C(=O)c1ccccc1C2=O [Napabucasin] (top concentration 20000 nM) | label 1
COCC[n+]1c2c(n(Cc3cnccn3)c1C)C(=O)c1ccccc1C2=O [Sepantronium_bromide] (top concentration 10000 nM) | label 0
CC(C)N(CCCNC(=O)Nc1ccc(C(C)(C)C)cc1)C[C@H]1O[C@@H](n2cc(Br)c3c(N)ncnc32)[C@H](O)[C@@H]1O [SGC0946] (top concentration 10000 nM) | label 0
COc1cc([C@@H]2c3cc4c(cc3[C@@H](O[C@@H]3O[C@@H]5CO[C@@H](C)O[C@H]5[C@H](O)[C@H]3O)[C@H]3COC(=O)[C@H]23)OCO4)cc(OC)c1O [Etoposide] (top concentration 10000 nM) | label 1
O=C(O)c1ccc(CN2CCC(CN[C@@H]3C[C@H]3c3ccccc3)CC2)cc1 (top concentration 100000 nM) | label 0
CC(C)C[C@H](NC(=O)[C@@H](COC(C)(C)C)NC(=O)[C@H](Cc1ccc(O)cc1)NC(=O)[C@H](CO)NC(=O)[C@H](Cc1c[nH]c2ccccc12)NC(=O)[C@H](Cc1cnc[nH]1)NC(=O)[C@@H]1CCC(=O)N1)C(=O)N[C@@H](CCCNC(=N)N)C(=O)N1CCC[C@H]1C(=O)NNC(N)=O [Goserelin] (top concentration 10000 nM) | label 1

Confirm if selective drug sensitivity score reported for the compound CN[C@@H]1C[C@H]2O[C@@](C)([C@@H]1OC)n1c3ccccc3c3c4c(c5c6ccccc6n2c5c31)C(=O)N[C@H]4O [UCN-01] (top concentration 10000 nM) is -0.08 or above. label 1

# check: selective drug sensitivity score of C=CC(=O)N1CC/C(=C\c2ccc(F)c([N+](=O)[O-])c2)C(=O)/C(=C/c2ccc(F)c([N+](=O)[O-])c2)C1 [VLX1570] (top concentration 10000 nM) is greater than or equal to -0.08 label 0

Please tell me: is the compound Cn1cc(-c2[nH]c3cc(NC(=O)[C@H](N)C4CCCCC4)cc4c3c2C=NNC4=O)cn1 (top concentration 10000 nM) at or over -0.08 in terms of selective drug sensitivity score? label 1
